test system: MCF-7/TAX Pgp; assay: MCF-7/TAX (Pgp) cell activity; assay type: cell-based; conditions: Homo sapiens, MCF7
assay.metric: EC50
State the result as a value with its unit after it.

molecule | EC50
CCOc1ccc(N(C)c2nc(Cl)nc3cnn(C)c23)cc1 | 31.3 nM
CC(=O)O[C@H]1C(=O)[C@@]2(C)[C@H]([C@H](OC(=O)c3ccccc3)[C@]3(O)C[C@H](OC(=O)[C@H](O)[C@@H](NC(=O)c4ccccc4)c4ccccc4)C(C)=C1C3(C)C)[C@]1(OC(C)=O)CO[C@@H]1C[C@@H]2O [Paclitaxel, reference compound] | 3220 nM
COc1cccc2cc(N(C)c3nc(Cl)nc4cnn(C)c34)ccc12 | 43 nM
COc1ccc(N(C)c2nc(Cl)nc3cnn(C)c23)cc1 | 15.1 nM

Could you now look at the following molecule, please?
[ask] What value of EC50 on MCF-7/TAX Pgp does `COc1ccc(N(C)c2nc(Cl)nc3cnn(C)c23)cc1F` have?
[reply] 8.1 nM

###

system: OVCAR-8; assay: Compound activity in OVCAR-8 cell line; assay type: cell-based; conditions: Table 2; OVCAR-8; read-out: OVCAR-8 IC50 (nM) ± SD
assay.metric: IC50 (nM)
Answers are plain numbers, in nM.

[ask] Returns the measured IC50 for the input compound. Input: COc1ccc(/C=C\c2cc(OC)c(OC)c(OC)c2)cc1O [CS-A4, Combretastatin A-4, reference compound]
[reply] 3.5

###

Please provide measured pEC50 for the entries that follow.
test system: MCF-7-TUBB3 β3-tubulin; experiment: MCF-7-TUBB3 (β3-tubulin) cell activity; format: cell-based
One number for each entry, as −log10 of the molar value.

Take each entry in turn and give its pEC50.
1. COc1cccc2cc(N(C)c3nc(Cl)nc4cnn(C)c34)ccc12 [Compound 7]
2. CCOc1ccc(N(C)c2nc(Cl)nc3cnn(C)c23)cc1 [Compound 8]
3. COc1ccc(N(C)c2nc(Cl)nc3cnn(C)c23)cc1 [Compound 4]
4. CC(=O)O[C@H]1C(=O)[C@@]2(C)[C@H]([C@H](OC(=O)c3ccccc3)[C@]3(O)C[C@H](OC(=O)[C@H](O)[C@@H](NC(=O)c4ccccc4)c4ccccc4)C(C)=C1C3(C)C)[C@]1(OC(C)=O)CO[C@@H]1C[C@@H]2O [Paclitaxel, reference compound]

[reply]
[7.77, 8.01, 8.48, 5.68]

[ask] Returns the measured pEC50 for the input compound. Input: COc1ccc(N(C)c2nc(Cl)nc3cnn(C)c23)cc1F [Compound 6d7]
[reply] 8.59

###

test system: OVCAR-8; assay: Compound activity in OVCAR-8 cell line; assay type: cell-based; conditions: Homo sapiens; Table 1; OVCAR-8; read-out: OVCAR-8 IC50 (nM) ± SD
assay.metric: IC50

compound | assay.metric | experimental.value
CSc1ccc(N(C)c2nc(Cl)nc3cnn(C)c23)cc1 | IC50 | 31 nM
COc1ccc(Nc2nc(Cl)nc3cnn(C)c23)cc1 | IC50 | > 5000 nM
CN(c1ccc(OC(F)(F)F)cc1)c1nc(Cl)nc2cnn(C)c12 | IC50 | 880 nM
COc1ccc2c(c1)CCCN2c1nc(Cl)nc2cnn(C)c12 | IC50 | 17 nM
COc1ccc(N(C)c2nc(Cl)nc3cnn(C)c23)cc1 | IC50 | 9 nM

Take each entry in turn and give its IC50.
1. CC(C)Oc1ccc(N(C)c2nc(Cl)nc3cnn(C)c23)cc1
2. CCOc1ccc(N(C)c2nc(Cl)nc3cnn(C)c23)cc1
3. COc1cccc2cc(N(C)c3nc(Cl)nc4cnn(C)c34)ccc12
4. CC(=O)O[C@H]1C(=O)[C@@]2(C)[C@H]([C@H](OC(=O)c3ccccc3)[C@]3(O)C[C@H](OC(=O)[C@H](O)[C@@H](NC(=O)c4ccccc4)c4ccccc4)C(C)=C1C3(C)C)[C@]1(OC(C)=O)CO[C@@H]1C[C@@H]2O [Paclitaxel, reference compound]

[reply]
["49 nM", "2 nM", "14 nM", "7 nM"]

###

tested on: MCF-7 WT; test: MCF-7 WT cell activity; format: cell-based; conditions: Homo sapiens, MCF7
Please provide measured EC50 for the entries that follow.
Numbers only, in nM.

Solved cases (3 shown):
compound | test.target | assay.metric | experimental.value
CCOc1ccc(N(C)c2nc(Cl)nc3cnn(C)c23)cc1 [Compound 8] | MCF-7 WT | EC50 | 7.7
COc1ccc(N(C)c2nc(Cl)nc3cnn(C)c23)cc1 [Compound 4] | MCF-7 WT | EC50 | 2
CC(=O)O[C@H]1C(=O)[C@@]2(C)[C@H]([C@H](OC(=O)c3ccccc3)[C@]3(O)C[C@H](OC(=O)[C@H](O)[C@@H](NC(=O)c4ccccc4)c4ccccc4)C(C)=C1C3(C)C)[C@]1(OC(C)=O)CO[C@@H]1C[C@@H]2O [Paclitaxel, reference compound] | MCF-7 WT | EC50 | 194

Take each entry in turn and give its EC50.
1. COc1ccc(N(C)c2nc(Cl)nc3cnn(C)c23)cc1F [Compound 6d7]
2. COc1cccc2cc(N(C)c3nc(Cl)nc4cnn(C)c34)ccc12 [Compound 7]

[reply]
[1.7, 35.2]
